Assay: pH-solubility of polypeptide variants
Assay type: physicochemical
Settings: pH 8.5; b: high viscous solution, aliquot assayed; read-out: pH-solubility, Concentration
Description: Solubility study of variants was performed by adding variants powders into solvent in concentration of 5 mg/ml and then vortexing for 3 min. Observe the appearance of solutions in 5 min. Add more powder (˜5 mg/ml each time) and repeat vortex and observe until precipitation or gelation occurs.
Square brackets hold non-standard residues; d marks the D form. Peptide text beside a SMILES is read from it.
observable: solubility at 3 min

Task: Request the reported solubility at 3 min associated with CC(C)[C@H](NC(=O)[C@@H](NC(=O)[C@H](Cc1ccccc1)NC(=O)[C@@H](NC(=O)[C@@H](NC(=O)[C@H](Cc1ccccc1)NC(=O)[C@H](CO)NC(=O)[C@H](C)NC(=O)[C@H](CCCCN)NC(=O)CNC(=O)[C@H](CCC(=O)O)NC(=O)[C@@H](C)NC(=O)[C@@H](C)N)[C@@H](C)O)[C@@H](C)O)[C@@H](C)O)C(=O)N[C@H](C(=O)N[C@@H](CCCCN)C(=O)NCC(=O)N[C@@H](CO)C(=O)N[C@H](C)C(=O)N[C@H](C)C(N)=O)[C@@H](C)O [SEQ ID NO.7] (H-[dA][dA]EGKASFTTFTVTKGS[dA][dA]-NH2)
Output: ≥ 23.8 mg/mL

----------
Assay: Appearance of solutions in solubility study of variants
Format: physicochemical
Details: pH 7.5, 10 mg/ml
Procedure: Solubility study of variants was performed by adding variants powders into solvent in concentration of 5 mg/ml and then vortexing for 3 min. Observe the appearance of solutions in 5 min. Add more powder (˜5 mg/ml each time) and repeat vortex and observe until precipitation or gelation occurs.
Square brackets hold non-standard residues; d marks the D form. Peptide text beside a SMILES is read from it. Orn = NCCC[C@H](N)C(=O)O
observable: Appearance of solutions

Record excerpt, results attached:
* CC(C)[C@H](NC(=O)[C@@H](NC(=O)[C@H](Cc1ccccc1)NC(=O)[C@@H](NC(=O)[C@@H](NC(=O)[C@H](Cc1ccccc1)NC(=O)[C@H](CO)NC(=O)[C@H](C)NC(=O)[C@@H](N)CCCN)[C@@H](C)O)[C@@H](C)O)[C@@H](C)O)C(=O)N[C@H](C(=O)N[C@@H](CCCN)C(=O)N[C@@H](CO)C(N)=O)[C@@H](C)O [SEQ ID NO.10, OASFTTFTVTOS-NH2] (H-[Orn]ASFTTFTVT[Orn]S-NH2) | Clear
* CC(C)[C@H](NC(=O)[C@@H](NC(=O)[C@H](Cc1ccccc1)NC(=O)[C@@H](NC(=O)[C@@H](NC(=O)[C@H](Cc1ccccc1)NC(=O)[C@H](CO)NC(=O)[C@H](C)NC(=O)[C@H](CCCCN)NC(=O)CNC(=O)[C@H](CCC(=O)O)NC(=O)[C@@H](C)NC(=O)[C@@H](C)N)[C@@H](C)O)[C@@H](C)O)[C@@H](C)O)C(=O)N[C@H](C(=O)N[C@@H](CCCCN)C(=O)NCC(=O)N[C@@H](CO)C(=O)N[C@H](C)C(=O)N[C@H](C)C(N)=O)[C@@H](C)O [SEQ ID NO.7] (H-[dA][dA]EGKASFTTFTVTKGS[dA][dA]-NH2) | Clear
* CC(C)[C@H](NC(=O)[C@@H](NC(=O)[C@H](Cc1ccccc1)NC(=O)[C@@H](NC(=O)[C@@H](NC(=O)[C@H](Cc1ccccc1)NC(=O)[C@H](CO)NC(=O)[C@H](C)NC(=O)[C@@H](N)CCCCN)[C@@H](C)O)[C@@H](C)O)[C@@H](C)O)C(=O)N[C@H](C(=O)N[C@@H](CCCCN)C(=O)NCC(=O)N[C@@H](CO)C(=O)O)[C@@H](C)O [SEQ ID NO.4] (H-KASFTTFTVTKGS-OH) | Clear
* CC(C)[C@H](N)C(=O)N[C@H](C(=O)N[C@@H](CCCCN)C(=O)N[C@@H](Cc1ccc(O)cc1)C(=O)N[C@@H](Cc1c[nH]c2ccccc12)C(=O)N[C@@H](Cc1ccccc1)C(=O)N[C@@H](Cc1ccc(O)cc1)C(=O)N[C@@H](CCCNC(=N)N)C(N)=O)[C@@H](C)O [SEQ ID NO.22] (H-VTKYWFYR-NH2) | Clear

Attention now shifts to the item below.
Task: Which Appearance of solutions is listed for CC(=O)N[C@H](C)C(=O)N[C@H](C)C(=O)N[C@@H](CCC(=O)O)C(=O)NCC(=O)N[C@@H](CCCCN)C(=O)N[C@@H](C)C(=O)N[C@@H](CO)C(=O)N[C@@H](Cc1ccccc1)C(=O)N[C@H](C(=O)N[C@H](C(=O)N[C@@H](Cc1ccccc1)C(=O)N[C@H](C(=O)N[C@H](C(=O)N[C@H](C(=O)N[C@@H](CCCCN)C(=O)NCC(=O)N[C@@H](CO)C(=O)N[C@H](C)C(=O)N[C@H](C)C(N)=O)[C@@H](C)O)C(C)C)[C@@H](C)O)[C@@H](C)O)[C@@H](C)O [SEQ ID NO.8] (Ac-[dA][dA]EGKASFTTFTVTKGS[dA][dA]-NH2) ?
Output: Clear

----------
Assay: pH-solubility of polypeptide variants
Type: physicochemical
Settings: pH 4.5; b: high viscous solution, aliquot assayed; read-out: pH-solubility, Concentration
Square brackets hold non-standard residues; d marks the D form. Peptide text beside a SMILES is read from it.
# solubility at 3 min annotations

* CC(C)[C@H](NC(=O)[C@@H](NC(=O)[C@H](Cc1ccccc1)NC(=O)[C@@H](NC(=O)[C@@H](NC(=O)[C@H](Cc1ccccc1)NC(=O)[C@H](CO)NC(=O)[C@H](C)NC(=O)[C@H](CCCCN)NC(=O)CNC(=O)[C@H](CCC(=O)O)NC(=O)[C@@H](C)NC(=O)[C@@H](C)N)[C@@H](C)O)[C@@H](C)O)[C@@H](C)O)C(=O)N[C@H](C(=O)N[C@@H](CCCCN)C(=O)NCC(=O)N[C@@H](CO)C(=O)N[C@H](C)C(=O)N[C@H](C)C(N)=O)[C@@H](C)O [SEQ ID NO.7] (H-[dA][dA]EGKASFTTFTVTKGS[dA][dA]-NH2) | ≥ 32 mg/mL

Task: Entry CC(=O)N[C@H](C)C(=O)N[C@H](C)C(=O)N[C@@H](CCC(=O)O)C(=O)NCC(=O)N[C@@H](CCCCN)C(=O)N[C@@H](C)C(=O)N[C@@H](CO)C(=O)N[C@@H](Cc1ccccc1)C(=O)N[C@H](C(=O)N[C@H](C(=O)N[C@@H](Cc1ccccc1)C(=O)N[C@H](C(=O)N[C@H](C(=O)N[C@H](C(=O)N[C@@H](CCCCN)C(=O)NCC(=O)N[C@@H](CO)C(=O)N[C@H](C)C(=O)N[C@H](C)C(N)=O)[C@@H](C)O)C(C)C)[C@@H](C)O)[C@@H](C)O)[C@@H](C)O [SEQ ID NO.8] (Ac-[dA][dA]EGKASFTTFTVTKGS[dA][dA]-NH2) : reported solubility at 3 min = ?
Output: ≥ 24.2 mg/mL

----------
Assay: pH-solubility of polypeptide variants
Assay type: physicochemical
Conditions: pH 6.5; a: precipitate, supernatant assayed; read-out: pH-solubility, Concentration
Square brackets hold non-standard residues; d marks the D form. Peptide text beside a SMILES is read from it. Orn = NCCC[C@H](N)C(=O)O
Quick list: solubility thermodynamic at 3 min per entry.
Give just the number in µg/mL; leave the unit off.

The following compounds have reported results that may help.
* CC(=O)N[C@H](C)C(=O)N[C@H](C)C(=O)N[C@@H](CCC(=O)O)C(=O)NCC(=O)N[C@@H](CCCCN)C(=O)N[C@@H](C)C(=O)N[C@@H](CO)C(=O)N[C@@H](Cc1ccccc1)C(=O)N[C@H](C(=O)N[C@H](C(=O)N[C@@H](Cc1ccccc1)C(=O)N[C@H](C(=O)N[C@H](C(=O)N[C@H](C(=O)N[C@@H](CCCCN)C(=O)NCC(=O)N[C@@H](CO)C(=O)N[C@H](C)C(=O)N[C@H](C)C(N)=O)[C@@H](C)O)C(C)C)[C@@H](C)O)[C@@H](C)O)[C@@H](C)O [SEQ ID NO.8] (Ac-[dA][dA]EGKASFTTFTVTKGS[dA][dA]-NH2) | 27300
* CC(C)[C@H](NC(=O)[C@@H](NC(=O)[C@H](Cc1ccccc1)NC(=O)[C@@H](NC(=O)[C@@H](NC(=O)[C@H](Cc1ccccc1)NC(=O)[C@H](CO)NC(=O)[C@H](C)NC(=O)[C@@H](N)CCCN)[C@@H](C)O)[C@@H](C)O)[C@@H](C)O)C(=O)N[C@H](C(=O)N[C@@H](CCCN)C(=O)N[C@@H](CO)C(N)=O)[C@@H](C)O [SEQ ID NO.10, OASFTTFTVTOS-NH2] (H-[Orn]ASFTTFTVT[Orn]S-NH2) | 5500
* CC(C)[C@H](N)C(=O)N[C@H](C(=O)N[C@@H](CCCCN)C(=O)N[C@@H](Cc1ccc(O)cc1)C(=O)N[C@@H](Cc1c[nH]c2ccccc12)C(=O)N[C@@H](Cc1ccccc1)C(=O)N[C@@H](Cc1ccc(O)cc1)C(=O)N[C@@H](CCCNC(=N)N)C(N)=O)[C@@H](C)O [SEQ ID NO.22] (H-VTKYWFYR-NH2) | 3490
* CC[C@H](C)[C@H](NC(=O)CNC(=O)[C@@H](N)CC(=O)O)C(=O)N[C@@H](Cc1c[nH]c2ccccc12)C(=O)N[C@@H](CCCCN)C(=O)N[C@@H](C)C(=O)N[C@@H](CO)C(=O)N[C@@H](Cc1ccccc1)C(N)=O [SEQ ID NO.21] (H-DGIWKASF-NH2) | 260

Now for the compound whose solubility thermodynamic at 3 min we want.
Task: Dear colleague, I am looking for the recorded solubility thermodynamic at 3 min of the following compound: CC(C)[C@H](NC(=O)[C@@H](NC(=O)[C@H](Cc1ccccc1)NC(=O)[C@@H](NC(=O)[C@@H](NC(=O)[C@H](Cc1ccccc1)NC(=O)[C@H](CO)NC(=O)[C@H](C)NC(=O)[C@@H](N)CCCCN)[C@@H](C)O)[C@@H](C)O)[C@@H](C)O)C(=O)N[C@H](C(=O)N[C@@H](CCCCN)C(=O)NCC(=O)N[C@@H](CO)C(=O)O)[C@@H](C)O [SEQ ID NO.4] (H-KASFTTFTVTKGS-OH)
Output: 5900
